Data origin, for the record: patent US20180298070A1

Molecular target: T1, human GIPR (human), P48546
T1 chain: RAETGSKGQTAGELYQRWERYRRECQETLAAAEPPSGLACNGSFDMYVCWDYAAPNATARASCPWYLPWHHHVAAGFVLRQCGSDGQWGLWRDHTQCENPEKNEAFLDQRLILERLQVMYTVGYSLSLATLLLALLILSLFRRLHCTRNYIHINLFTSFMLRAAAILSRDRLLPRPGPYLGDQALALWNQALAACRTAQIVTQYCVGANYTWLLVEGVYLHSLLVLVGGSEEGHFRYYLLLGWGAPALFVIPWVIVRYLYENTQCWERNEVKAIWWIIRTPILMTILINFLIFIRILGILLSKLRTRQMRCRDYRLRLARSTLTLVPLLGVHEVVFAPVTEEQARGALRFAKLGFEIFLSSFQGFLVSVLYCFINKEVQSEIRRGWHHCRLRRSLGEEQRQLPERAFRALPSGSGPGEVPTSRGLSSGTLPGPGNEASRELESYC
Assay: [125I]GIP displacement, hGIPR VLP
Non-standard residues stand in square brackets, D forms with d. Groups on a side chain read outwards from the residue. Primed or numbered codes have the meaning given here. No end group written: not given here. *: point of attachment. NMeY = CN[C@@H](Cc1ccc(O)cc1)C(=O)O; αMeF = C[C@](N)(Cc1ccccc1)C(=O)O; Lauroyl = CCCCCCCCCCCC(=O)*; dIva = CC[C@@](C)(N)C(=O)O; Iva = CC[C@](C)(N)C(=O)O; PEG2′ = not defined here; Aib = CC(C)(N)C(=O)O
quantity.name: pIC50
The read-out pIC50 is expressed as -log10 of concentration in moles per litre.

Recorded results for 5 binders are shown here.
# binder, pIC50
rows = [
    ("Y[Aib]EGTFISDYSK([PEG2′-Lauroyl])ALDRIAQQS[αMeF]VNW[Iva]LAQRPSSGAPPPS (not fully specified (C-terminus); ends and bridges not checked) [Compound 221]", 8.52),
    ("Y[Aib]EGTFISDYSK([PEG2′-Lauroyl])ALDR[Aib]HQ[Aib]NFVNW[Iva]LAQRPSSGAPPPS (not fully specified (C-terminus); ends and bridges not checked) [Compound 215]", 8.55),
    ("Y[Aib]EGTFISDYSK([PEG(2)-Lauroyl])ALDRIAQQSFVNWLLAQRPSSGAPPPSR (ends and bridges not checked) [Compound 196]", 8.62),
    ("Y[Aib]EGTVVSLYSK([PEG(2)-Pal])[Aib]LDKQAQ[Aib]EFVKWLLAQK (ends and bridges not checked) [Compound 158]", 8.47),
    ("Me-Y[Aib]EGTFISDYSIALDRIAQQN[αMeF]VNWLLAQRPSSGAPPPSR (not fully specified (residue 1, C-terminus); ends and bridges not checked) [Compound 134]", 8.92),
]

So what does the record say about pIC50 for Y[Aib]EGTFISDYSK([PEG(2)-Lauroyl])ALDR[Aib]AQQDFVNWLLAQRPSSGAPPPS (ends and bridges not checked) [Compound 205] ?
8.80

So what does the record say about pIC50 for [NMeY][Aib]EGTFISDYSI[dIva]LDRIAQ[Aib]N[αMeF]VNWLLAQRPSSGAPPPSR (ends and bridges not checked) [Compound 99] ?
8.68
